Test: Solubility of oxime ester compound in solvent
Assay type: physicochemical
Details: solvent CHN: cyclohexanone (footnote)
# key: entry, value: Solubility CHN
observed_property: Solubility CHN (%)

1) CCCCC(CC)Cn1c2ccc(/C(=N/OC(C)=O)c3ccc(OC(C)COC)cc3)cc2c2cc([N+](=O)[O-])ccc21 (stereo not drawn) : 14
2) CCCCCCCCCCCCCCCCn1c2ccc(/C(C)=N/OC(C)=O)cc2c2cc([N+](=O)[O-])ccc21 : 5.3
3) COCC(C)OC(=O)CCCCCn1c2ccc(/C(C)=N/OC(C)=O)cc2c2cc([N+](=O)[O-])ccc21 (stereo not drawn) : 31
4) COCC(C)OC(=O)Cn1c2ccc(/C(C)=N/OC(C)=O)cc2c2cc([N+](=O)[O-])ccc21 (stereo not drawn) : 0.54
5) CCCCCCCCCCCCn1c2ccc(/C(C)=N/OC(C)=O)cc2c2cc([N+](=O)[O-])ccc21 : 7.2
6) CCCCCCC/C(=N\OC(C)=O)c1ccc2c(c1)c1cc([N+](=O)[O-])ccc1n2CC(CC)CCCC (stereo not drawn) : 42
7) CCCCCCCCCCC/C(=N\OC(C)=O)c1ccc2c(c1)c1cc([N+](=O)[O-])ccc1n2CC(CC)CCCC (stereo not drawn) : 45
8) CCCCC(CC)Cn1c2ccc(/C(=N/OC(C)=O)c3ccccc3OCCOC)cc2c2cc([N+](=O)[O-])ccc21 (stereo not drawn) : 3.2
9) CCOCCn1c2ccc(/C(C)=N/OC(C)=O)cc2c2cc([N+](=O)[O-])ccc21 : 2.4
10) CCCCC(CC)Cn1c2ccc(/C(Cc3ccccc3)=N/OC(C)=O)cc2c2cc([N+](=O)[O-])ccc21 (stereo not drawn) : 13
11) C=CC(=O)OCCn1c2ccc(/C(CCCCCCCCCCC)=N/OC(C)=O)cc2c2cc([N+](=O)[O-])ccc21 : 3.7
12) CCCCC(CC)Cn1c2ccc(/C(C)=N/OC(C)=O)cc2c2cc([N+](=O)[O-])ccc21 (stereo not drawn) : 18.9
13) CCn1c2ccc(/C(=N/OC(C)=O)c3ccc(OC(C)COC)cc3C)cc2c2cc([N+](=O)[O-])ccc21 (stereo not drawn) : 27
14) CCCCCCCCn1c2ccc(/C(C)=N/OC(C)=O)cc2c2cc([N+](=O)[O-])ccc21 : 9.2
15) CCCCC(CC)Cn1c2ccc(/C(=N/OC(C)=O)c3ccc(OCC)cc3OCC)cc2c2cc([N+](=O)[O-])ccc21 (stereo not drawn) : 23
